# System: HCT-15 colon
# assay-method-text: NCI tumour cell line growth inhibition, 48 h
test-readout: TGI

{"columns": ["compound", "assayed-target", "test-readout", "result"],
 "data": [
  ["COc1ccc(OC)c(/C=C/C(=O)N/N=C/c2ccccc2)c1", "HCT-15 colon", "TGI", "> 100 µM"],
  ["CCc1cccc(C)c1NC(=O)CCc1n[nH]c(=S)o1", "HCT-15 colon", "TGI", "> 100 µM"],
  ["Cc1nc2ccc(Cl)cc2c(Cl)c1CCCl", "HCT-15 colon", "TGI", "> 100 µM"],
  ["Fc1cccc(F)c1C1SCc2nc3cc4ccccc4cc3n21 (stereo unspecified)", "HCT-15 colon", "TGI", "55 µM"],
  ["CCOP(=O)(CN1CCNCCN(CP(=O)(OCC)OCC)CC1)OCC", "HCT-15 colon", "TGI", "> 100 µM"],
  ["C=CC[C@@]1(OC(C)=O)C(=O)C(=O)OC1C1COC(C)(C)O1 (stereo partly specified)", "HCT-15 colon", "TGI", "29 µM"]
]}
